Molecular target: hSSB1 (Homo sapiens, UniProt Q9BQ15 Q9BQ15:1-211)
Sequence (Q9BQ15 whole entry, one chain of several): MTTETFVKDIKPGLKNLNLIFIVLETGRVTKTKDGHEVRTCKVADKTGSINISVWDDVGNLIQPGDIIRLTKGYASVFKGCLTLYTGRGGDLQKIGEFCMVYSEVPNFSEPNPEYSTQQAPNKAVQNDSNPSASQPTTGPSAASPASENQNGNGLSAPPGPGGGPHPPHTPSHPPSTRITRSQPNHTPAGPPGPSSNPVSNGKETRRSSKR
Experiment: EMSA; 10 mM Tris, 1 mM EDTA, 37C; Table 7 gives 9 nM
Conditions: label: FAM
Procedure: FIG. 15 is a graphic representation of hSSB1 EMSAs showing increasing concentrations of hSSB1 protein vs. 5 nM of FAM-labeled LSA_In3E3 sequence in either phosphorothioate (PS) or phosphodiester (PD) chemistry, or negative control sequence (Neg_C) in phosphorothioate chemistry. Graphs represent quantification of at least triplicate experiments, expressed as the fraction of oligomer compound bound to the protein. […]
observed_property: Kd
Enter the number, and then the unit.

Qu. Provide one value: measured Kd of CUCAUUCCUACCGACACCCC (ssRNA, 2'-OMe all, PS all) [Neg_C]
Ans. 10 nM
